# Subject Of Test: GPIIb-IIIa (Homo sapiens, UniProt P05106+P08514)
# Construct: Purified platelet GPIIb-IIIa receptor was prepared as described by Fitzgerald
# Sequence (P08514 32-887 limits assumed): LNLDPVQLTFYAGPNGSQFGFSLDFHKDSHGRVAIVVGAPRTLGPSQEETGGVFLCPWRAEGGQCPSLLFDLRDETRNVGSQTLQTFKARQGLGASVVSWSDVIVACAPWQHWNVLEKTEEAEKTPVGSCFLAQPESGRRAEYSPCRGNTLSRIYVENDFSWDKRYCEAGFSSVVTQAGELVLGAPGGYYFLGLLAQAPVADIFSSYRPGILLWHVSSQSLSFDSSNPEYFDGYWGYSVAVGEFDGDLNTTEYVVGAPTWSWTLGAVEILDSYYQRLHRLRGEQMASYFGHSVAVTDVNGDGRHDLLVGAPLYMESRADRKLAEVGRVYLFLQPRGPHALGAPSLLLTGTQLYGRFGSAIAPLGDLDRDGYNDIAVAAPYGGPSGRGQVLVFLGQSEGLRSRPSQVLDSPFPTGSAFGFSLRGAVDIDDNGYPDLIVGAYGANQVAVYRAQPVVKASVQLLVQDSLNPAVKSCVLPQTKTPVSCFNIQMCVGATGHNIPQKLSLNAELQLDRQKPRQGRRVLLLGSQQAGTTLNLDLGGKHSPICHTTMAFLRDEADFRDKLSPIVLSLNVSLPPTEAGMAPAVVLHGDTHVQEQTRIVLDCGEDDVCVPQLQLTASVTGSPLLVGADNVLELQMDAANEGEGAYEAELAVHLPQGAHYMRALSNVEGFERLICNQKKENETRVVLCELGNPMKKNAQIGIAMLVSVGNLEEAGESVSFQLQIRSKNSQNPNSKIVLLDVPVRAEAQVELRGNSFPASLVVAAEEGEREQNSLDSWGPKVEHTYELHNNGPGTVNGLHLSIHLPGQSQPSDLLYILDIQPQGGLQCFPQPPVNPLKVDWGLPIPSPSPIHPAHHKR
# Sequence (P05106 27-788): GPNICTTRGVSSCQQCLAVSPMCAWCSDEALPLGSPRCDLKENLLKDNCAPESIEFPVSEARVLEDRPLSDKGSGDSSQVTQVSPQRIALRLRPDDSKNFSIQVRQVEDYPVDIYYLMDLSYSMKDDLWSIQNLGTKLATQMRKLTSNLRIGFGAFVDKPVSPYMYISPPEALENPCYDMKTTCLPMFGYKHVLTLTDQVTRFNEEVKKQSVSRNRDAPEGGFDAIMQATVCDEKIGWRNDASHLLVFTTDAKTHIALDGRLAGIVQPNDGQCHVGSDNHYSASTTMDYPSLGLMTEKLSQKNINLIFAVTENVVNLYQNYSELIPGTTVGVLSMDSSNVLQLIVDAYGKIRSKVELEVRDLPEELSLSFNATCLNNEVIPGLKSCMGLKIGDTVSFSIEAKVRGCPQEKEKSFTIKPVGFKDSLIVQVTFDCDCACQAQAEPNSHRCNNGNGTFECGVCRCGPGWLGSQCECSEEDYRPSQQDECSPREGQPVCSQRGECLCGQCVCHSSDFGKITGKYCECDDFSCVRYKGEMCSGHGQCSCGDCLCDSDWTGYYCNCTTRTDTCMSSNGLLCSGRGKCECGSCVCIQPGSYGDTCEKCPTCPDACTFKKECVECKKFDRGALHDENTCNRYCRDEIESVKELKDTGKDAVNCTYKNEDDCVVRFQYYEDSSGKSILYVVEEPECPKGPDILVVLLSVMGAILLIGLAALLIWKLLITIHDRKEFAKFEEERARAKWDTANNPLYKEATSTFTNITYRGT
# Protocol Details: ELISA IIb-IIIa assay (fibrinogen binding to immobilized GPIIb-IIIa)
# Study Conditions: purified platelet GPIIb-IIIa receptor coated on ELISA plates; biotin-labeled fibrinogen 10 nM, 3 hours at 25° C.
Measurement Name: IC50

>  <Molecule>
N=C(N)c1ccc(C(=O)Nc2ccc3c(c2)CCC(CC(=O)O)O3)c(F)c1 (racemic)

>  <IC50>
1.3 nM

$$$$

Task item: Quick one: IC50 of N=C(N)c1ccc(C(=O)Nc2ccc3c(c2)CCN(CC(=O)O)C3=O)cc1 ?
Reply: 3.3 nM

Task item: Quick one: IC50 of N=C(N)c1ccc(COc2ccc3c(c2)CCN(C(CC(=O)O)C(=O)NCCC(=O)O)C3=O)cc1 (racemic) ?
Reply: 85 nM

* * *

pIC50 by entry:
# Subject Of Test: GPIIb-IIIa (Homo sapiens, UniProt P05106+P08514)
# Construct: Purified platelet GPIIb-IIIa receptor was prepared as described by Fitzgerald
# Protocol Details: ELISA IIb-IIIa assay (fibrinogen binding to immobilized GPIIb-IIIa)
# Study Conditions: purified platelet GPIIb-IIIa receptor coated on ELISA plates; biotin-labeled fibrinogen 10 nM, 3 hours at 25° C.
Counter-ions that a name gives are not always drawn.
Please treat pIC50 as minus the base-10 logarithm of the molar concentration.

>  <Molecule>
N=C(N)c1ccc(C(=O)Nc2ccc3c(c2)CCC(/C=C/C(=O)O)C3)cc1 (stereo not drawn)

>  <Subject Of Test>
GPIIb-IIIa (Homo sapiens, UniProt P05106+P08514)

>  <pIC50>
7.00

$$$$
>  <Molecule>
N=C(N)c1ccc(COc2ccc3c(c2)CCN(C(CC(=O)O)C(=O)NCc2ccccc2)C3=O)cc1 (racemic)

>  <Subject Of Test>
GPIIb-IIIa (Homo sapiens, UniProt P05106+P08514)

>  <pIC50>
7.30

$$$$

Task item: For the record CCCCNC(=N)c1ccc(C(=O)Nc2ccc3c(c2)CCC(CC(=O)O)O3)cc1 (racemic) , what value of pIC50 is listed for GPIIb-IIIa (Homo sapiens, UniProt P05106+P08514)?
Reply: 8.26

Task item: For the record COc1ccc(CCNC(=O)C(CC(=O)O)N2CCc3cc(OCc4ccc(C(=N)N)cc4)ccc3C2=O)cc1 (racemic) , what value of pIC50 is listed for GPIIb-IIIa (Homo sapiens, UniProt P05106+P08514)?
Reply: 7.82

Task item: For the record N=C(N)c1ccc(CCc2ccc3c(c2)CCN(CC(=O)O)C3=O)cc1 , what value of pIC50 is listed for GPIIb-IIIa (Homo sapiens, UniProt P05106+P08514)?
Reply: 6.96

Task item: For the record N=C(N)c1ccc(C(=O)Nc2ccc3c(c2)CCC(CC(=O)O)C3=O)c(Cl)c1 (racemic) , what value of pIC50 is listed for GPIIb-IIIa (Homo sapiens, UniProt P05106+P08514)?
Reply: 8.03

Task item: For the record CCOC(=O)CC1CCc2cc(NC(=O)c3ccc(NC(=N)N)cc3)ccc2O1 (racemic) , what value of pIC50 is listed for GPIIb-IIIa (Homo sapiens, UniProt P05106+P08514)?
Reply: 6.10

Task item: For the record CCC(CC(=O)O)N1CCc2cc(OCc3ccc(C(=N)N)cc3)ccc2C1=O (racemic) , what value of pIC50 is listed for GPIIb-IIIa (Homo sapiens, UniProt P05106+P08514)?
Reply: 7.35

Task item: For the record N=C(N)c1ccc(COc2ccc3c(c2)CCC(CC(=O)O)O3)cc1 (racemic) [Example 46, Trifluoroacetate] , what value of pIC50 is listed for GPIIb-IIIa (Homo sapiens, UniProt P05106+P08514)?
Reply: 8.48

Task item: For the record O=C(O)CC1CCc2cc(NC(=O)/C=C/C3CCNCC3)ccc2O1 (racemic) , what value of pIC50 is listed for GPIIb-IIIa (Homo sapiens, UniProt P05106+P08514)?
Reply: 7.70

Task item: For the record N=C(N)CCCCCOc1ccc2c(c1)CCC(CC(=O)O)O2 (racemic) [Example 55, Trifluoroacetate] , what value of pIC50 is listed for GPIIb-IIIa (Homo sapiens, UniProt P05106+P08514)?
Reply: 5.46
